Test: Maximum time (Tmax) was measured after oral dosing at 10 mg/kg in female BALB/c mice(100% PEG400)
Format: ADME, organism-based
Parameters: dose 10 mg/kg, route oral
Settings: mouse, in vivo
REPORTED_PROPERTY: Tmax (h)

| COMPOUND | TEST_VALUE |
| --- | --- |
| Cc1ccc(-n2nc(C(C)(C)C)cc2NC(=O)Nc2ccc(OCCN3CCOCC3)c3ccccc23)cc1 | 1 |

* * *

Assay: Bioavailability was measured after oral dosing at 10 mg/kg in male cynomolgus monkey (100% PEG400)
Assay type: ADME, organism-based, Macaca fascicularis
Conditions: in vivo, read-out: Bioavailabiility

| COMPOUND | bioavailability / % |
| --- | --- |
| Cc1ccc(-n2nc(C(C)(C)C)cc2NC(=O)Nc2ccc(OCCN3CCOCC3)c3ccccc23)cc1 [DORAMAPIMOD] | 80 |

* * *

Test: Plasma clearance was measured after intravenous dosing at 1 mg/kg in male cynomolgus monkey (70% PEG400)
Type: ADME, organism-based, Macaca fascicularis
Parameters: dose 1 mg/kg, route intravenous

| COMPOUND | clearance / mL/min/kg |
| --- | --- |
| Cc1ccc(-n2nc(C(C)(C)C)cc2NC(=O)Nc2ccc(OCCN3CCOCC3)c3ccccc23)cc1 | 14.4 |

* * *

Assay: Plasma level of compound was measured after 90 min post dose in mouse.
Format: ADME, organism-based
Details: read-out: Plasma level

| COMPOUND | concentration at 1.5 h (ng/mL) |
| --- | --- |
| CC(C)(C)c1cc(NC(=O)Nc2ccccc2)n(-c2ccccc2)n1 | 100 |
| Cc1ccc(-n2nc(C(C)(C)C)cc2NC(=O)Nc2ccccc2F)cc1 | 51000 |

* * *

Test: Vss was measured after intravenous dosing at 1 mg/kg in male cynomolgus monkey (70% PEG400)
Type: ADME, organism-based, Macaca fascicularis
Parameters: dose 1 mg/kg, route intravenous
Details: in vivo, read-out: Vss

| COMPOUND | UNIT_STRING | Vd |
| --- | --- | --- |
| Cc1ccc(-n2nc(C(C)(C)C)cc2NC(=O)Nc2ccc(OCCN3CCOCC3)c3ccccc23)cc1 [DORAMAPIMOD] | L/kg | 1.9 |

* * *

Experiment: Plasma level of compound was measured after 90 min post dose in mouse
Type: ADME, organism-based
Conditions: read-out: Plasma level

| COMPOUND | concentration at 1.5 h / ng/mL |
| --- | --- |
| Cc1ccc(-n2nc(C(C)(C)C)cc2NC(=O)Nc2ccccc2)cc1 | 11000 |

* * *

Assay: Maximum plasma conc. was measured after oral dosing at 10 mg/kg in female BALB/c mice(100% PEG400)
Assay type: ADME, organism-based
Parameters: dose 10 mg/kg, route oral
Details: mouse

| COMPOUND | Cmax [ng/mL] |
| --- | --- |
| Cc1ccc(-n2nc(C(C)(C)C)cc2NC(=O)Nc2ccc(OCCN3CCOCC3)c3ccccc23)cc1 | 27000 |

* * *

Test: Half life was measured after intravenous dosing at 1 mg/kg in female BALB/c mice(70% PEG400)
Format: ADME, organism-based
Design: dose 1 mg/kg, route intravenous
Details: mouse, in vivo

| COMPOUND | UNIT_STRING | half-life |
| --- | --- | --- |
| Cc1ccc(-n2nc(C(C)(C)C)cc2NC(=O)Nc2ccc(OCCN3CCOCC3)c3ccccc23)cc1 | h | 2.6 |

* * *

Assay: Vss was measured after intravenous dosing at 1 mg/kg in female BALB/c mice(70% PEG400)
Assay type: ADME, organism-based
Parameters: dose 1 mg/kg, route intravenous
Details: mouse, in vivo, read-out: Vss

| COMPOUND | Vd |
| --- | --- |
| Cc1ccc(-n2nc(C(C)(C)C)cc2NC(=O)Nc2ccc(OCCN3CCOCC3)c3ccccc23)cc1 [DORAMAPIMOD] | 0.07 L/kg |
